Just for reference, patent US20120270929A1 is where these values come from.

# System: murine TTC39C mRNA
# measurementDescription: Dose-dependent antisense inhibition of murine TTC39C in mouse primary hepatocytes
# Assay type: cell-based
# appliedConditions: mouse primary hepatocytes, electroporation, ~16 h
Oligonucleotides are written 5' to 3', each unit as a sugar letter and its base; * is a phosphorothioate linkage, no mark a phosphodiester; rarer units and linkages stand in square brackets, end groups in braces. Plain capitals give the bases only. e = 2'-O-(2-methoxyethyl) (MOE); [5mC] = 5-methylcytosine; d = 2'-deoxy (DNA)
Could you please report measured IC50 for the items listed next?
Expressed in nM, but write only the number.

The recorded IC50 for ISIS 474609: 5-10-5 MOE gapmer antisense oligonucleotide targeting murine TTC39C (antisense e[5mC]*eG*eT*eA*eG*dT*dA*dG*d[5mC]*dA*d[5mC]*dT*dG*dG*dG*eA*e[5mC]*e[5mC]*eA*e[5mC]) is 600

The recorded IC50 for ISIS 474598: 5-10-5 MOE gapmer antisense oligonucleotide targeting murine TTC39C (antisense e[5mC]*e[5mC]*e[5mC]*eA*e[5mC]*d[5mC]*dT*dT*dT*dT*dA*dT*dG*dT*dA*eG*eG*e[5mC]*e[5mC]*eG) is 1100

The recorded IC50 for ISIS 474610: 5-10-5 MOE gapmer antisense oligonucleotide targeting murine TTC39C (antisense eT*eT*eA*eA*eG*dA*dA*d[5mC]*dA*dA*dG*dT*dT*dG*dT*eG*e[5mC]*e[5mC]*e[5mC]*e[5mC]) is 2800

The recorded IC50 for ISIS 474599: 5-10-5 MOE gapmer antisense oligonucleotide targeting murine TTC39C (antisense e[5mC]*eG*eT*eT*eG*dA*dT*dG*dT*d[5mC]*d[5mC]*dA*d[5mC]*dA*dT*eA*eG*e[5mC]*eA*e[5mC]) is 900

* * *

# Test system: murine TTC39B mRNA
# measurementDescription: Dose-dependent antisense inhibition of murine TTC39B in mouse primary hepatocytes (Example 3)
# Type: cell-based
# appliedConditions: 200.0 nM, cytofectin, ~16 h
# Description: Cells were plated at a density of 10,000 cells per well and transfected using cytofectin reagent with 6.25 nM, 12.5 nM, 25 nM, 50 nM, 100 nM, and 200 nM concentrations of antisense oligonucleotide, as specified in Table 4. After a treatment period of approximately 16 hours, RNA was isolated from the cells and TTC39B mRNA levels were measured by quantitative real-time PCR. […] TTC39B mRNA levels were adjusted according to total RNA content, as measured by RIBOGREEN®. […]
Oligonucleotides are written 5' to 3', each unit as a sugar letter and its base; * is a phosphorothioate linkage, no mark a phosphodiester; rarer units and linkages stand in square brackets, end groups in braces. Plain capitals give the bases only. e = 2'-O-(2-methoxyethyl) (MOE); [5mC] = 5-methylcytosine; d = 2'-deoxy (DNA)
endpointName: percent inhibition of TTC39B mRNA
Remember to put the unit after the number in your answer.

The recorded percent inhibition of TTC39B mRNA for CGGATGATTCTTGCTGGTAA (antisense e[5mC]*eG*eG*eA*eT*dG*dA*dT*dT*d[5mC]*dT*dT*dG*d[5mC]*dT*eG*eG*eT*eA*eA) [ISIS 447114] is 93%

The recorded percent inhibition of TTC39B mRNA for TGTCAGTGACAGTGGCAGCT (antisense eT*eG*eT*e[5mC]*eA*dG*dT*dG*dA*d[5mC]*dA*dG*dT*dG*dG*e[5mC]*eA*eG*e[5mC]*eT) [ISIS 447159] is 86%

The recorded percent inhibition of TTC39B mRNA for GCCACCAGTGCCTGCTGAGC (antisense eG*e[5mC]*e[5mC]*eA*e[5mC]*d[5mC]*dA*dG*dT*dG*d[5mC]*d[5mC]*dT*dG*d[5mC]*eT*eG*eA*eG*e[5mC]) [ISIS 447143] is 94%

The recorded percent inhibition of TTC39B mRNA for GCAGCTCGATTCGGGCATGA (antisense eG*e[5mC]*eA*eG*e[5mC]*dT*d[5mC]*dG*dA*dT*dT*d[5mC]*dG*dG*dG*e[5mC]*eA*eT*eG*eA) [ISIS 447118] is 81%
